read-out: E-selectin (Homo sapiens); test: BSK_SAg_Eselectin: BioMAP Diversity Plus: SAg Assay for Eselectin Biomarker Activity (AID 2283091); conditions: primary human HUVEC with PBMC; actives raise or lower the signal
The source made the active and inactive calls. How the source made its calls: active means hit-call score of the fitted dose curve at least 0.9, where 1 is the maximum; inactive means score below 0.9.
Form entry, call: pick from True = active, False = inactive

How did this test come out for `Cc1cccc(O)c1C` ?
False

Try this compound next: `CCCc1ccccc1`
False

Try the compound `CCCCOC(=O)c1ccccc1`
False

Same question for `CCCCCCCCCCCCCCO` please.
True

Please give the result for `O=C(Cl)C(F)(F)C(F)(F)C(F)(F)C(=O)Cl` too.
False

Repeat for the following compound: `Cc1nccn1-c1ccc(Sc2cccc(C3(C(N)=O)CCOCC3)c2)cc1`
True

Same thing, different compound: `CCOc1ccc2[nH]cc(C(=O)NCc3ccccc3)c(=O)c2n1`
False

Next compound up: `OCc1c[nH]c2ccccc12`
False

// query: `c1ccc2ncccc2c1`
False

Try `CC(C)c1nnc2ccc(-c3ocnc3-c3cc(F)ccc3F)cn12` next.
True

Then `OCCOCCOCCO` ?
False

Try the compound `FC(F)(F)COC(OCC(F)(F)F)OCC(F)(F)F`
False

// repeat for `C[Si](C)(C)C(F)(F)C(F)(F)C(F)(F)F` and report
False

Let us now turn to `Cc1nc(-c2ccccn2)ncc1C(=O)Nn1cc(C)c2cc(F)ccc21`
False
